FYI, the data here is from ChEMBL document CHEMBL4368882.

Experiment: Cytotoxicity against mouse RAW264.7 cells after 48 hrs by resazurin dye-based assay
Assay type: cell-based
Assignment: determine reported CC50 at 48 h for the given compounds.

What value of CC50 at 48 h has been reported for the following compound? CCn1ncc2cc(N/C(C)=C3\C(=O)C=C(C)OC3=O)ccc21
> 100 µM

Try this compound next: CCn1cc2cc(N/C(C)=C3\C(=O)C=C(C)OC3=O)ccc2n1
> 100 µM

How about this compound: CC1=CC(=O)/C(=C(/C)Nc2ccc3c(cnn3C)c2)C(=O)O1
> 100 µM

Here is the next compound: CC1=CC(=O)/C(=C(/C)Nc2ccc3c(Cl)n(C)nc3c2)C(=O)O1
6.26 µM

Similarly, C=CCn1cc2ccc(N/C(C)=C3\C(=O)C=C(C)OC3=O)cc2n1 ?
> 100 µM

Queued: CCn1ncc2ccc(N/C(C)=C3\C(=O)C=C(C)OC3=O)cc21
> 100 µM

====

Please go through the items and note down their selectivity ratio.
Assay: Selectivity index, ratio of CC50 for mouse RAW264.7 cells to IC50 for Leishmania donovani MHOM/ET/67/HU3 intramacrophage amastigotes infected in mouse RAW264.7 cells
Type: toxicity, cell-based
Settings: read-out: Ratio CC50/IC50
// no unit, no text: just the number

I'd like to know its selectivity ratio. The molecule in question is CC1=CC(=O)/C(=C(/C)Nc2ccc3c(Cl)n(C)nc3c2)C(=O)O1
1.92

Query CCn1nc2cc(N/C(C)=C3\C(=O)C=C(C)OC3=O)ccc2c1Cl next
2.77

Lookup CCn1nc(Cl)c2ccc(N/C(C)=C3\C(=O)C=C(C)OC3=O)cc21
0.96

====

Assay: Cytotoxicity against mouse RAW264.7 cells after 48 hrs by resazurin dye-based assay
Format: cell-based
metric: CC50 at 48 h

Given the entry CCn1nc2cc(N/C(C)=C3\C(=O)C=C(C)OC3=O)ccc2c1Cl , report its measured CC50 at 48 h.
6.25 µM

Follow-up entry: CC1=CC(=O)/C(=C(/C)Nc2ccc3c(Cl)n(Cc4ccc(C)cc4)nc3c2)C(=O)O1
> 100 µM

Try this compound too: C=CCn1ncc2cc(N/C(C)=C3\C(=O)C=C(C)OC3=O)ccc21
> 100 µM

And C[C@@H]1[C@H](O)[C@@H](C)/C=C/C=C/C=C/C=C/C=C/C=C/C=C/[C@H](O[C@@H]2O[C@H](C)[C@@H](O)[C@H](N)[C@@H]2O)C[C@@H]2O[C@](O)(C[C@@H](O)C[C@@H](O)[C@H](O)CC[C@@H](O)C[C@@H](O)CC(=O)O[C@H]1C)C[C@H](O)[C@H]2C(=O)O [AMPHOTERICIN B] ?
4.23 µM

Now consider C=CCn1ncc2ccc(N/C(C)=C3\C(=O)C=C(C)OC3=O)cc21 and answer again.
> 100 µM

Similarly, CCn1nc(Cl)c2ccc(N/C(C)=C3\C(=O)C=C(C)OC3=O)cc21 ?
6.23 µM

Same for CC1=CC(=O)/C(=C(/C)Nc2ccc3cnn(Cc4ccc(C)cc4)c3c2)C(=O)O1
> 100 µM

Would you kindly repeat that for CC1=CC(=O)/C(=C(/C)Nc2ccc3nn(C)cc3c2)C(=O)O1 ?
> 100 µM

Same lookup for C=CCn1nc(Cl)c2ccc(N/C(C)=C3\C(=O)C=C(C)OC3=O)cc21 , please.
> 100 µM

What about this compound? CCn1cc2ccc(N/C(C)=C3\C(=O)C=C(C)OC3=O)cc2n1
> 100 µM

Another compound to check: CC1=CC(=O)/C(=C(/C)Nc2ccc3c(Cl)nn(Cc4ccc(C)cc4)c3c2)C(=O)O1
> 100 µM

What do you have for CC1=CC(=O)/C(=C(/C)Nc2ccc3c(Cl)nn(C)c3c2)C(=O)O1 ?
> 100 µM

Please do the same for CC1=CC(=O)/C(=C(/C)Nc2ccc3cn(Cc4ccc(C)cc4)nc3c2)C(=O)O1 as well.
> 100 µM

Follow-up entry: CC1=CC(=O)/C(=C(/C)Nc2ccc3cnn(C)c3c2)C(=O)O1
> 100 µM
